System: c-Src;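 note: 11-residue human phosphosite peptides and single-mutation variants displayed on the E. coli surface, counted by deep sequencing, each peptide's frequency after selection divided by its frequency in the unselected input library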;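 note: frequency after pTyr selection over input frequency; kinase dosed for 20-30% of maximal phosphorylation in three min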
Assay: phosphorylation enrichment, bacterial display (enrichment ratio); higher = better substrate or ligand; peptides without Tyr show the background
Quick reference for phosphorylation enrichment among some sequences
Please respond with just the number, no unit label.

AFLGEYIPTVF [RAC2_Y32_P29L]
0.664
EFLHKYKGFKI [SYNE1_Y6953_Q6951H_YF]
0.508
FLAVEYHKPHI [IDS_Y225_G224E]
0.387
AEEPIYIIVPA [BMXtide_2014]
8.8

Q: What value of phosphorylation enrichment has been recorded for this entry: GGGMFYPLDLF
A: 0.388

Q: Now try DERQPYVHMNG [IGF1R_Y1346_A1347V] .
A: 0.484
